Target: Tyrosine-protein kinase receptor UFO (Homo sapiens)
Sequence (P30530 whole entry): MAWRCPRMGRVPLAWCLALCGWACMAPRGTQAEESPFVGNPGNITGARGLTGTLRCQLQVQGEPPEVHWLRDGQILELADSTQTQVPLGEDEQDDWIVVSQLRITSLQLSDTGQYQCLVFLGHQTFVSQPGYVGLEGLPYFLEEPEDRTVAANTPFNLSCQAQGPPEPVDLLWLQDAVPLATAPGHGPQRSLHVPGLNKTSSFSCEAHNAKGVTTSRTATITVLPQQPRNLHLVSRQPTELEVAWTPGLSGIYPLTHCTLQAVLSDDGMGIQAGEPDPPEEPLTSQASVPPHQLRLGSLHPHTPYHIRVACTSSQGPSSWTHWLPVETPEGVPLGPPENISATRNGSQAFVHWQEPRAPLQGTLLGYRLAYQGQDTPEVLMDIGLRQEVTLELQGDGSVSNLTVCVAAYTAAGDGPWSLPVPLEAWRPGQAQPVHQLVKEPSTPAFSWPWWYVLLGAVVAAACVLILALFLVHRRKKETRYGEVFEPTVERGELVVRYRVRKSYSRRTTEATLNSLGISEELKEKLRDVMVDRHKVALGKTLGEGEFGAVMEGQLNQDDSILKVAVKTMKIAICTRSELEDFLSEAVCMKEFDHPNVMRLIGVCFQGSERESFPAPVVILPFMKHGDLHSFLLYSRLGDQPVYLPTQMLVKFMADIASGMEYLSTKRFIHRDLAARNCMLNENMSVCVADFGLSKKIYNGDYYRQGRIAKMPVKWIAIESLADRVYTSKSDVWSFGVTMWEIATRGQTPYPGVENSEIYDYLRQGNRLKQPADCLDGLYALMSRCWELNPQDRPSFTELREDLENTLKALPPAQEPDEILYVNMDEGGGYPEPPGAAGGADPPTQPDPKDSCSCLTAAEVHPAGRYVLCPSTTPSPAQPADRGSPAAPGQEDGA

Compound: NC(=O)c1ccc(-c2nc(-c3ccc4c(c3)OCO4)c(-c3ccccn3)[nH]2)cc1 [SB-431542]
Tested on: Tyrosine-protein kinase receptor UFO (Homo sapiens)
Kd: > 10 µM
//
Compound: Oc1ccc(-c2nc(-c3ccncc3)c(-c3ccc(F)cc3)[nH]2)cc1 [SB-202190]
Tested on: Tyrosine-protein kinase receptor UFO (Homo sapiens)
Kd: > 10 µM
//
Compound: CCOc1cc2ncc(C#N)c(Nc3ccc(F)c(Cl)c3)c2cc1NC(=O)/C=C/CN(C)C [PELITINIB]
Tested on: Tyrosine-protein kinase receptor UFO (Homo sapiens)
Kd: 0.92 µM
//
Compound: COCC(=O)NC/C=C/c1ccc2ncnc(Nc3ccc(Oc4ccc(C)nc4)c(C)c3)c2c1 [CP-724714]
Tested on: Tyrosine-protein kinase receptor UFO (Homo sapiens)
Kd: > 10 µM
